- Method: Saturated solubility of ASA after 1 hour shaking in a medium selection
- Assay type: physicochemical
- Applied conditions: acidified 60 g/L mannitol solution, saline or isotonic, thermodynamic from solid, Acidified 60 g/L mannitol, read-out: Individual concentration at saturation (Cs), Aspirin (A)

| Compound | solubility thermodynamic at 1 h, µg/mL |
| --- | --- |
| CC(=O)Oc1ccccc1C(=O)O [ASA, Acetyl salicylic acid] | 1780 |

###

- Method: Saturated solubility of ASA after 1 hour shaking in a medium selection
- Format: physicochemical
- Applied conditions: acidified water, aqueous buffer, thermodynamic from solid, Acidified water, read-out: Individual concentration at saturation (Cs), Aspirin (A)

| Compound | solubility thermodynamic at 1 h |
| --- | --- |
| CC(=O)Oc1ccccc1C(=O)O [ASA, Acetyl salicylic acid] | 1890 µg/mL |

###

- Method: Saturated solubility of ASA after 1 hour shaking in a medium selection
- Type: physicochemical
- Applied conditions: 60 g/L mannitol solution, saline or isotonic, thermodynamic from solid, 60 g/L mannitol, without pH adjustment, read-out: Individual concentration at saturation (Cs), Aspirin (A)
Measure: solubility thermodynamic at 1 h (µg/mL)

| Item smiles | Readout number |
| --- | --- |
| CC(=O)Oc1ccccc1C(=O)O | 3090 |

Attribution: patent US12357644B2
